tested.system: HLA-A*33:01
assay.text: IEDB peptide-MHC binding, purified MHC/competitive/radioactivity; filed as Kd, often an IC50 or EC50 that approximates it; bounds were set here for any values at or beyond the usual limits of such assays
experimental.parameters: source organism: SARS coronavirus Tor2
Field: Kd. Provide a value for each of the sequences that follow.

-- ask Give me measured Kd, please, for this sequence: "RVYANLGER"
-- reply ≥ 45.4 µM

-- ask Give me measured Kd, please, for this sequence: "GANYLGKPK"
-- reply ≥ 77.7 µM

-- ask Give me measured Kd, please, for this sequence: "NQVIVNNLDK"
-- reply ≥ 70 µM

-- ask Give me measured Kd, please, for this sequence: "KFVFPLNSK"
-- reply ≥ 53.6 µM

-- ask Give me measured Kd, please, for this sequence: "KSKSFNHVLK"
-- reply ≥ 70 µM

-- ask Give me measured Kd, please, for this sequence: "KVNSTLEQY"
-- reply ≥ 50.4 µM

-- ask Give me measured Kd, please, for this sequence: "AIDAYPLTK"
-- reply ≥ 44.6 µM

-- ask Give me measured Kd, please, for this sequence: "AQGLVASIK"
-- reply ≥ 31.6 µM

-- ask Give me measured Kd, please, for this sequence: "LIGANYLGK"
-- reply ≥ 77.7 µM

* * *

tested.system: HLA-B*51:01
assay.text: IEDB peptide-MHC binding, purified MHC/competitive/radioactivity; filed as Kd, often an IC50 or EC50 that approximates it; bounds were set here for any values at or beyond the usual limits of such assays
experimental.parameters: source organism: Vaccinia virus WR
pKd: −log10 of the molar value.
Field: pKd. Provide a value for each of the sequences that follow.

-- ask Give me measured pKd, please, for this sequence: "EPLSPDTCLL"
-- reply ≤ 4.16

-- ask Give me measured pKd, please, for this sequence: "RPEMQEFEY"
-- reply ≤ 4.11

-- ask Give me measured pKd, please, for this sequence: "DPEKFNARMA"
-- reply ≤ 4.39

-- ask Give me measured pKd, please, for this sequence: "EPVVKDKIKL"
-- reply ≤ 4.16

* * *

tested.system: HLA-A*33:01
assay.text: IEDB peptide-MHC binding, purified MHC/competitive/radioactivity; filed as Kd, often an IC50 or EC50 that approximates it; bounds were set here for any values at or beyond the usual limits of such assays
experimental.parameters: source organism: Vaccinia virus WR
pKd: −log10 of the molar value.
test.readout: pKd

-- ask Give me measured pKd, please, for this sequence: "VLNRHAITMY"
-- reply ≤ 4.15

-- ask Give me measured pKd, please, for this sequence: "LIKFISDNKK"
-- reply ≤ 5.00

-- ask Give me measured pKd, please, for this sequence: "TILDDNLYK"
-- reply ≤ 4.11

-- ask Give me measured pKd, please, for this sequence: "ITDMINASLK"
-- reply ≤ 4.56

-- ask Give me measured pKd, please, for this sequence: "PTFQLLNMIK"
-- reply ≤ 4.15

-- ask Give me measured pKd, please, for this sequence: "HIVCSKTVK"
-- reply ≤ 4.48

-- ask Give me measured pKd, please, for this sequence: "NILGGVLHTK"
-- reply 5.86

-- ask Give me measured pKd, please, for this sequence: "ILKKLSSIK"
-- reply 5.81

-- ask Give me measured pKd, please, for this sequence: "AAKYVEHDPR"
-- reply 5.83

-- ask Give me measured pKd, please, for this sequence: "LLHCVTESY"
-- reply ≤ 4.58

-- ask Give me measured pKd, please, for this sequence: "WLSMTDEMR"
-- reply 5.20

-- ask Give me measured pKd, please, for this sequence: "KIVNGVLSR"
-- reply 5.15

-- ask Give me measured pKd, please, for this sequence: "RVLFSIFYK"
-- reply 5.73

-- ask Give me measured pKd, please, for this sequence: "SIKDVIHDY"
-- reply 4.71

-- ask Give me measured pKd, please, for this sequence: "TIPIGMQFDK"
-- reply ≤ 4.15

-- ask Give me measured pKd, please, for this sequence: "FSTSAADIKR"
-- reply ≤ 4.65

-- ask Give me measured pKd, please, for this sequence: "SMDVLAEKKY"
-- reply ≤ 4.53

-- ask Give me measured pKd, please, for this sequence: "IINDKGKQY"
-- reply ≤ 4.11

-- ask Give me measured pKd, please, for this sequence: "MTLVPVLEK"
-- reply 5.88

-- ask Give me measured pKd, please, for this sequence: "PVETLFGSY"
-- reply ≤ 4.11

-- ask Give me measured pKd, please, for this sequence: "ELYDTSPTK"
-- reply ≤ 4.36

-- ask Give me measured pKd, please, for this sequence: "TLDTMDDMKK"
-- reply ≤ 4.15

-- ask Give me measured pKd, please, for this sequence: "TIAGGVCYY"
-- reply ≤ 4.29

-- ask Give me measured pKd, please, for this sequence: "FSLESDSIK"
-- reply 5.65

-- ask Give me measured pKd, please, for this sequence: "PLFDFVNEKY"
-- reply ≤ 4.15

-- ask Give me measured pKd, please, for this sequence: "EVGSIRCVKY"
-- reply ≤ 4.32

-- ask Give me measured pKd, please, for this sequence: "KAFNHASVK"
-- reply ≤ 4.32

-- ask Give me measured pKd, please, for this sequence: "LTILDDNLY"
-- reply ≤ 4.16

-- ask Give me measured pKd, please, for this sequence: "IQTSVNTVVR"
-- reply ≤ 4.52

-- ask Give me measured pKd, please, for this sequence: "TSMMVILPDK"
-- reply ≤ 4.64

-- ask Give me measured pKd, please, for this sequence: "STQSVLCVK"
-- reply 4.81

-- ask Give me measured pKd, please, for this sequence: "YIFPGDKTSY"
-- reply ≤ 4.15
